Tested on: MS2 coat protein
protocol.details: apparent KD of MS2 coat protein, switch ON state; designed switch direction (-1 OFF switch, 1 ON switch): 1; higher = weaker reporter binding
recorded.conditions: FMN input: 0 or 200 uM; Eterna round: R93 (includes R88 designs)
attribute.measured: apparent KD of MS2 coat protein (nM)
// return numeric value only (unit: nM, not printed)

**Q:** Reported apparent KD of MS2 coat protein for AACAAUCUAUCUGAGGAUAUCAUAAAAAAGACAUGAGGAUCACCCAUGUAGCAGGAAACUGCAUAUGAGAAGGCAGAUAGAUUGA [SS2: 1122] : what is it?
**A:** 29.6

**Q:** Reported apparent KD of MS2 coat protein for AAAAAACAUGAGGAUCACCCAUGUGAGAACAUGGGAGGAUAUACGAGGACGAGAGUCAGAGUAGAAGGCCUAAAAA [Garnet 66] : what is it?
**A:** 161

**Q:** Reported apparent KD of MS2 coat protein for GAAAAACAUGAGGAUCACCCAUGUAGAAAUAUGGGAGGAUAUACAAACUCGAAAGACAAAGUAGAAGGCCUAAAAG [Garnet 24] : what is it?
**A:** 38.2

---

Test system: MS2 coat protein
protocol.details: apparent KD of MS2 coat protein; higher = weaker reporter binding
recorded.conditions: Eterna round: R107; input ligand: theophylline 20 uM
Please provide measured apparent KD of MS2 coat protein for the entries that follow.
// return numeric value only (unit: nM, not printed)

**Q:** Reported apparent KD of MS2 coat protein for GCACUACAUGAGGAUCACCCAUGUGCAGAUACCAGAGGUGUAUGCCUCCCUUGGCAGCUGAGUAGCUCUGGAGGCCUAUUGGUUU [Same State Theophylline A GF15] : what is it?
**A:** 20

**Q:** Reported apparent KD of MS2 coat protein for UGACAUUGCUCAGAUACCAGACAUGAGGAUCACCCAUGUACCAAGAAAACGUACAAUAAUGUCCCUUGGCAGCUGAGCAAUGUCU [TheoBX 9 #MS2Left #Theo2] : what is it?
**A:** 180

**Q:** Reported apparent KD of MS2 coat protein for AAACGACAUGAGGAUCACCCAUGUGCCGAUACCAGCCGGAUAUACGGCCCUUGGCAGCGGAGUAAAUCCGGAGGACAAUGGGUAA [Same State Theophylline A GF6] : what is it?
**A:** 49.5

---

Please provide measured apparent KD of MS2 coat protein for the entries that follow.
Test system: MS2 coat protein
protocol.details: apparent KD of MS2 coat protein; designed switch direction (-1 OFF switch, 1 ON switch): -1; higher = weaker reporter binding
recorded.conditions: input ligand: microRNA oligo, concentration not stated
// return numeric value only (unit: nM, not printed)

**Q:** Form field - read-out: apparent KD of MS2 coat protein; system: MS2 coat protein; submitted item: AGAGUGGUGCGAGGAUAUACAUGAGGAUCACCCAUGUAAACGUGUGAGGCAAAGCCUCACACGAUGUAGAAGGCGCACUACUCA [Mat - Exclusion NG 2 - Mod of JL - D15] (Eterna round: R96, puzzle: Exclusion NG 2)
**A:** 9.9

**Q:** Form field - read-out: apparent KD of MS2 coat protein; system: MS2 coat protein; submitted item: UAUAUAUAGUAAGGAUAUGUAUAUAUUUUAUUAACAGAAGGUACUGACAUGAGGAUCACCCAUGUUUUAGUGUGGGCAUGUAGA [JMF's solution 69] (Eterna round: R96, puzzle: Exclusion NG 1)
**A:** 55.2

**Q:** Form field - read-out: apparent KD of MS2 coat protein; system: MS2 coat protein; submitted item: GCAGCAUAGUCGGAAACGACAGAACAUGAGGAUCACCCAUGUCAGGAUAUGGUCUGGAUUACAGGCCAGAAGGGACAAAGCUGC [Eli exng3 - 008] (Eterna round: R96, puzzle: Exclusion NG 3)
**A:** 14.1

**Q:** Form field - read-out: apparent KD of MS2 coat protein; system: MS2 coat protein; submitted item: GUAAUUAAUGUAGGAUAUGCAAGGCGAACCUAAGCAGAAGGACAUGAGGAUCACCCAUGUAUUGCGGUCUGCGUUCAGAUCGCU [salish99_ExNG1_r4_009] (Eterna round: R96, puzzle: Exclusion NG 1)
**A:** 15.4

---

Tested on: K4 kissing-loop RNA reporter;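 also: bound reporter read as fluorescence of individual clusters on recovered sequencing chips by microscopy, with normalized cluster intensities fitted with a binding model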
protocol.details: apparent KD of K4 kissing-loop reporter; higher = weaker reporter binding
recorded.conditions: Eterna round: R107; input ligand: tryptophan 2.4 mM
Please provide measured apparent KD of K4 kissing-loop reporter for the entries that follow.
// return numeric value only (unit: nM, not printed)

**Q:** Reported apparent KD of K4 kissing-loop reporter for GCAGUGAUGUUGCACGAGUAGGGUAGAGUACGAGGACCGGUACGGCCGCCACUCGUACGGAACUCGCUAAUUUAUGGAAUGGUGA [I] : what is it?
**A:** 497

**Q:** Reported apparent KD of K4 kissing-loop reporter for GAAAGAAAGAAUGAUACCAGACACCCGAGUGAUGUUCGGAGCAGAGUGAUGUUCUUAUAAGUCCCUUGGCAGCAUAAAAGAAAAG [whbob_SS_Theo_B_sa82] : what is it?
**A:** 153

**Q:** Reported apparent KD of K4 kissing-loop reporter for AGUGGACGUGUCCGGAGUGAUGUUCAGGAUACCAGACACGAAAGUGUCCCUUGGCAGCCGGAGUGAUGUUCCGGCGUUCACUAAA [Omei KL Theo A Exc B v4] : what is it?
**A:** 321

**Q:** Reported apparent KD of K4 kissing-loop reporter for UGACUGGACUGAAGGAGCGCUAAAACUCCUAGUGAUGUUGGGAAAUAAGAGACAAAGUCUCAGCAGGUAGGUCGCAGUCUAGUCU [ArgBS 24 #SwitchBubble #StaticStem] : what is it?
**A:** 526

**Q:** Reported apparent KD of K4 kissing-loop reporter for CCUAUCUCAUACGAUACCAGUCAAUGAGAUUUUAUCAAUGCCAUCACCGAGUGAUGUUCGGACCCUUGGCAGCGUAUGGGAUAGG [#02 K4 Theophylline B Exclusion] : what is it?
**A:** 221

**Q:** Reported apparent KD of K4 kissing-loop reporter for GUAUCGCUAGGAGGAUAUUUCAAUUUGACUCUUUGAGUUAAUACGGAGUGAUGUUCCGAUUUACGGAAAGAAGGCCUAGUGAUAC [FMN B 13] : what is it?
**A:** 210

**Q:** Reported apparent KD of K4 kissing-loop reporter for CGAGAAUGUCGACAGUCAUCGGUCCAUGCACGAGGACCGGUACGGCCGCCACUCGAGCGUGGCAGUGAUGUUGCCAGCGCACUAA [KL-XTryp-A14] : what is it?
**A:** 100

**Q:** Reported apparent KD of K4 kissing-loop reporter for AAACAUCACUACUUCUUCGUCCUAGAAGACUAGGAUAUCAGGAAACUGAGAAGGAGUCUCUGCAGUGAUGUUGCAGCUAGGACGA [[K]'-[F2]'-[F1]'-[F1]-[F2]-[K1]-[K2]-[F]''_Design2] : what is it?
**A:** 280

**Q:** Reported apparent KD of K4 kissing-loop reporter for UGUCGUUCUAGUGAUGUUAGGACAGUUAUGAAGGAUAUACACACUCGUAGAAGGUCAGCUGCGGAAUGGCGAUUACGGUGAUUCG [theeternabot_sameState_KL_FMN_A_39] : what is it?
**A:** 136

**Q:** Reported apparent KD of K4 kissing-loop reporter for AAUGUACAAGUGAUGUUUGUACUUUCCGAAGGAGCGUCUAAUAAGACAGGUAGGUCGCGGAUUCUCUAAAUUAUCAGGUCAUUAA [JR_ExcArginiA_Sub018] : what is it?
**A:** 87.4

**Q:** Reported apparent KD of K4 kissing-loop reporter for GGUUAAUAGGAGGAUACCAGUACGAAUAAAGUACAUUAAUAGUAGAGUGAUGUUCUAAAGUACCCUUGGCAGCUUAGAGUUAGUU [#19 K4 Theophylline B Exclusion] : what is it?
**A:** 102

**Q:** Reported apparent KD of K4 kissing-loop reporter for AGGCACGAGCAAGGAUAUUGAGUAGAGUGAUGUUCUGCCUAAGUUGGCUCGUAAGAGCCUUCUUAGCGAGAAGGUGCUCGUGCCU [#2 Same State - FMN A Attempt #27 (HarryS)] : what is it?
**A:** 665

**Q:** Reported apparent KD of K4 kissing-loop reporter for AGCUCAGAGUGACUCGAUAAGAGUCACAAACGAGGACCGGUACGGCCGCCACUCGAAACAAAGAGAGUGAUGUUCUCGCUGAGCA [FiskerMod 10 - Jieux - Same State Tryptophan A] : what is it?
**A:** 713

**Q:** Reported apparent KD of K4 kissing-loop reporter for UGUGUUGUUUUGAUGUUUGUUGUAAGGUGGCAGGAUAUCGUAGAGGCGAGAAGGGCUUUUUUGCGUUAUGAGUGAUGUUUGUAGG [exeerzmullin] : what is it?
**A:** 386

**Q:** Reported apparent KD of K4 kissing-loop reporter for GAUUAUUAUUCUAAAUAACAUUAUUCAGAAGGAGCGUGUUUGUACACAGGUAGGUCGCUGAAUGCUAAGCCAGUGAUGUUGGUAA [JR_SSArginiA_Sub001] : what is it?
**A:** 128

**Q:** Reported apparent KD of K4 kissing-loop reporter for GGCCCGGGCGCGGCCGCCACUCCCUCGUACCGAAAGGUAUGAUACCGAGUGAUGUUCGGUUGGAGGAGGACCGGGCGCCCGGGCC [#2 Exclusion - Tryptophan B Attempt #4 (HarryS)] : what is it?
**A:** 152

**Q:** Reported apparent KD of K4 kissing-loop reporter for CUCGACACGGGAAGGAGCGGUUGCGUGUGCCAGUGAUGUUGGAUCAGCAGACUGCCCGGUAGCCAGGUAGGUCGCCUGUGCUGAG [Esbeescexe] : what is it?
**A:** 142

**Q:** Reported apparent KD of K4 kissing-loop reporter for UGGGAUGGGCGAGGAUAUGGUGAUGUUUGGGUUGUUAGUGAUGUUGGUGAUGCUGGUGGUGUUUGUCCAGAAGGCGCGGUUUUUU [Bdazzled 3] : what is it?
**A:** 109

**Q:** Reported apparent KD of K4 kissing-loop reporter for AUUAAUAACUGAGGAUAUCGUUUUACUGUAGUGAUGUUACAGAAAAUUCACAUUAUAAUUUCUAUUCGAGAAGGCAGAAUAAUUA [JR_ExcFMNB_Sub014] : what is it?
**A:** 65.1

**Q:** Reported apparent KD of K4 kissing-loop reporter for GGCAGUGAUGUUGCCAGUGGCAGAUUGGAAGGAGCGUGGUGAGACACAGGUAGGUCGCUAAUUGAAAUUGCUGUCACUAAAAUGC [whbob_Ex_Arginine_A_2t130] : what is it?
**A:** 242

**Q:** Reported apparent KD of K4 kissing-loop reporter for GUAUCGCUAGGAGGAUAUUUCGUUUUUCAUAGCAAUGGCUAUGCGGAGUGAUGUUCCGAUUUACCGAAAGAAGGCCUAGUGAUAC [FMN B 25] : what is it?
**A:** 98.8

**Q:** Reported apparent KD of K4 kissing-loop reporter for AGUGAUGUUGAGUUAUCUUAGUGAAGUGAUCGAGGACCGGUACGGCCGCCACUCGAGUGAUGAGUGAGUGAUGUUUGUUUAGGGA [llkmullin] : what is it?
**A:** 413

**Q:** Reported apparent KD of K4 kissing-loop reporter for UUCAGACUACUACUAGACAGUAGUAUAUACUAGGAUAUCCAGAUAUGGAGAAGGAGUGAUGUUCCCUAGUAGUAGUGAAUUAAAU [KL-XFMN-A5] : what is it?
**A:** 335
